# Type: in vivo, human
# Experimental setup: human, plasma, oral, 150 mg

{"Compound": "C#Cc1cccc(Nc2ncnc3cc(OCCOC)c(OCCOC)cc23)c1 [Erlotinib]", "AUC(0-t), ng·h/mL": 41000}

* * *

# Protocol text: Plasma pharmacokinetics of dovitinib, phase I trial
# Assay type: in vivo
# Experimental setup: human, oral

{"Compound": "CN1CCN(c2ccc3nc(-c4c(N)c5c(F)cccc5[nH]c4=O)[nH]c3c2)CC1 [Dovitinib]", "half-life": "32 h"}

Sourced from paper PMC4613811
